# TARGET: T1, 6-Helix-Fd (HIV-1 gp41 (HXB2-like, printed sequence), stabilised)
# T1 construct: also called post-fusion six-helix bundle mimic
# T1 chain: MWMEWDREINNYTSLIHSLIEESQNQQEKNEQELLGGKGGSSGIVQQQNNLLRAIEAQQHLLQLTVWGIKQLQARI
# EXPERIMENTAL_DETAILS: ELISA
# CONDITION_CONTEXT: both partners purified
READOUT_NAME: IC50 (nM)
Please reply with the bare figure in nM and do not write the unit itself.

Ask | Give a short answer stating reported IC50 for 25B6 scFv, purified monovalent (scFv, V domains shown) VH: QVQLVQSGAEVRKPGASVKVSCKASGDTFSSYAISWVRQAPGQGLEWMGGIIPIFGTANYAQAFQGRVTITANESTSTAYMELSSLRSEDTAIYYCARDNPTLLGSDYWGAGTLVTVSS VL: DIQMTQSPSTLSASIGDRVTITCRASENIRSGLAWYQQKPGKAPKLLIYRASRLASGAPSRFSGSGSGTDFTLTISSLQPDDFATYYCQQYDDYPHTFGGGTKLEIK .
Reply | 94

Ask | Respond only with IC50 recorded for 25A12 scFv, purified monovalent (scFv, V domains shown) VH: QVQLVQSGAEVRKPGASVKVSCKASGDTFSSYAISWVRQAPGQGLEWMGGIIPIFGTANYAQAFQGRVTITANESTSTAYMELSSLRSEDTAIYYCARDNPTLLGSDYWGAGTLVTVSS VL: DIQMTQSPSTLSASIGDRVTITCRASEGIHRYLAWYQQKPGKAPKLLIYHASRLASGAPSRFSGSGSGTDFTLTISSLQPDDFATYYCQQRANYPYTFGGGTKLEIK
Reply | 280

Ask | Look up IC50 of D5 scFv, purified monovalent (scFv, V domains shown) VH: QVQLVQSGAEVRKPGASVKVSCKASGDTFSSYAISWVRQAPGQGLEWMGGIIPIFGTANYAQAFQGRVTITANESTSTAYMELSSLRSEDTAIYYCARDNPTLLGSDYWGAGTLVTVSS VL: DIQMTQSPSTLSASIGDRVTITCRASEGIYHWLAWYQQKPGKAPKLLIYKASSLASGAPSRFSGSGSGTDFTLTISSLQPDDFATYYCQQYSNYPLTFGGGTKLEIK and report it.
Reply | 290
